test system: Calu-3 cells; conditions: human, 5 days
RESULT_TYPE: CC50

* C[C@H](NC(=O)C(c1cccnc1)N(C(=O)CCl)c1ccc(-c2ccccc2)cc1)c1ccccc1 (stereo partly shown) | < 3.5 µM

* * *

target: SARS-CoV-2 papain-like protease (PL^pro) (Severe acute respiratory syndrome coronavirus 2 (2019-nCoV) (SARS-CoV-2), UniProt P0DTD1); test: biochemical; settings: IC50 against SARS-CoV-2 papain-like protease (PL^pro)
RESULT_TYPE: IC50

- C[C@H](NC(=O)C(c1cccnc1)N(C(=O)c1ccco1)c1ccc(-c2ccccc2)cc1)c1ccccc1 (single isomer, unassigned) [Compound 23R]: > 20 µM
